Plant response rating, Corn overview
test system: corn (Zea mays); test: Test A postemergence, corn; format: in vivo; conditions: 500 g ai/ha, visual injury, 0 to 100 scale (0 no effect, 100 complete control), approximately 10 days
Give a plain numeric answer without units written out.

Worked cases, Plant response rating, Corn given:
Compound | Plant response rating, Corn
O=C1NCC(c2ccccc2Cn2ccc(C(F)(F)F)n2)C1C(=O)Nc1cccc(F)c1F (stereo not shown) | 30
O=C1NCC(c2cccc(Oc3ncc(Cl)cn3)c2)C1C(=O)Nc1cccc(F)c1F (stereo not shown) | 0
O=C1NCC(c2cccc(Oc3ccc(F)cn3)c2)C1C(=O)Nc1ccccc1F (single isomer, unassigned) | 40

Continue with the next compound.
Query block: Could you tell me which Plant response rating, Corn is on file for O=C1NCC(c2ccccc2Cn2ccc(C(F)(F)F)n2)C1C(=O)Nc1ccc(F)c(F)c1F (stereo not shown) ?
Result block: 0

====

Listing of entries alongside the reported Plant response rating, Galium.
system: galium (catchweed bedstraw, Galium aparine); assay: Test A postemergence, galium; format: in vivo; conditions: 500 g ai/ha, visual injury, 0 to 100 scale (0 no effect, 100 complete control), approximately 10 days
When you answer, write just the number.

Below: 3 molecules and their reported Plant response rating, Galium.
Molecule | Reported
O=C1NCC(c2cccc(Oc3ccc(C(F)(F)F)cn3)c2)C1C(=O)Nc1ccccc1F (single isomer, unassigned) | 60
CN1CC(c2cccc(Oc3ncc(F)cn3)c2)C(C(=O)Nc2cccc(F)c2F)C1=O (single isomer, unassigned) | 70
CON=Cc1cccc(C2CN(C)C(=O)C2C(=O)Nc2ccccc2F)c1 (stereo not shown) | 30

Here's the next entry for you.
Query block: Data request, read-out Plant response rating, Galium, for O=C1NCC(c2ccccc2Cn2ccc(C(F)(F)F)n2)C1C(=O)Nc1ccccc1F (stereo not shown)
Result block: 0

====

system: barnyardgrass (Echinochloa crus-galli); assay: Test A postemergence, barnyardgrass; type: in vivo; details: 500 g ai/ha, visual injury, 0 to 100 scale (0 no effect, 100 complete control), approximately 10 days
Measured property: Plant response rating, Barnyardgrass

Query block: Form entry - test system: barnyardgrass (Echinochloa crus-galli); read-out: Plant response rating, Barnyardgrass; compound: O=C1NCC(c2cccc(Cn3ccc(C(F)(F)F)n3)c2)C1C(=O)Nc1cccc(F)c1F (stereo not drawn) [Compound 25]
Result block: 60

Query block: Report Plant response rating, Barnyardgrass for CC1(COc2cccc(C3CNC(=O)C3C(=O)Nc3ccccc3F)c2)COC1 (stereo not drawn) [Compound 14] tested on barnyardgrass (Echinochloa crus-galli).
Result block: 60

Query block: Fill in the recorded Plant response rating, Barnyardgrass for this compound, with barnyardgrass (Echinochloa crus-galli) as test system: CN1CC(c2cccc(Sc3ccccc3)c2)C(C(=O)Nc2ccccc2F)C1=O (single isomer, unassigned) [Compound 50]
Result block: 30

Query block: Reported Plant response rating, Barnyardgrass for barnyardgrass (Echinochloa crus-galli), given O=C1NCC(c2cccc(COc3ccccc3)c2)C1C(=O)Nc1ccc(F)cc1F (stereo not drawn) [Compound 20] ?
Result block: 70

Query block: Look up Plant response rating, Barnyardgrass with barnyardgrass (Echinochloa crus-galli) for this compound: O=C1NCC(c2cccc(COc3ccccc3)c2)C1C(=O)Nc1ccccc1F (stereo not drawn) [Compound 19]
Result block: 50

Query block: Recorded Plant response rating, Barnyardgrass for CN1CC(c2cccc(Oc3ccc(F)cn3)c2)C(C(=O)Nc2cccc(F)c2F)C1=O (single isomer, unassigned) [Compound 61] with barnyardgrass (Echinochloa crus-galli), please?
Result block: 80

====

test system: wheat (Triticum aestivum); experiment: Test A postemergence, wheat; format: in vivo; conditions: 500 g ai/ha, visual injury, 0 to 100 scale (0 no effect, 100 complete control), approximately 10 days
Catalogue of Plant response rating, Wheat readings, one per entry.
The reply should be a number, written without any unit.

Compound | Reported
O=C1NCC(c2ccccc2Cn2ccc(C(F)(F)F)n2)C1C(=O)Nc1ccccc1F (stereo not shown) | 0
O=C1NCC(c2cccc(Cn3ccc(C(F)(F)F)n3)c2)C1C(=O)Nc1ccc(F)c(F)c1F (stereo not shown) | 0
CN1CC(c2cccc(Oc3ncc(F)cn3)c2)C(C(=O)Nc2cccc(F)c2F)C1=O (single isomer, unassigned) | 70
C[Si](C)(C)C#Cc1cccc(C2CNC(=O)C2C(=O)Nc2cccc(F)c2F)c1 (stereo not shown) | 0
O=C1NCC(c2cccc(OCc3ccccc3)c2)C1C(=O)Nc1ccccc1Cl (stereo not shown) | 0
CN1CC(c2cccc(Oc3ccc(C(F)(F)F)cn3)c2)C(C(=O)Nc2cccc(F)c2F)C1=O (single isomer, unassigned) | 50
O=C1NCC(c2cccc(Cn3ccc(C(F)(F)F)n3)c2)C1C(=O)Nc1ccc(F)cc1F (stereo not shown) | 0
O=C1NCC(c2cccc(COc3ccccc3)c2)C1C(=O)Nc1ccccc1F (stereo not shown) | 0

Query block: I would be grateful if you could share the reported Plant response rating, Wheat for CON=Cc1cccc(C2CN(C)C(=O)C2C(=O)Nc2ccccc2F)c1 (stereo not shown) .
Result block: 0

Query block: Return reported Plant response rating, Wheat; argument: O=C1NCC(c2cccc(OCc3ccco3)c2)C1C(=O)Nc1ccccc1C(F)(F)F (stereo not shown)
Result block: 0

Query block: Value lookup for Plant response rating, Wheat; key = O=C1NCC(c2cccc(Oc3ccccn3)c2)C1C(=O)Nc1ccc(F)c(F)c1F (stereo not shown)
Result block: 0

Query block: // query Plant response rating, Wheat value for entry CC1(COc2cccc(C3CNC(=O)C3C(=O)Nc3ccccc3C(F)(F)F)c2)COC1 (stereo not shown)
Result block: 0

Query block: What value of Plant response rating, Wheat has been reported for the following compound? O=C1NCC(c2cccc(Oc3ccccn3)c2)C1C(=O)Nc1cccc(F)c1F (stereo not shown)
Result block: 0

Query block: Field request: Plant response rating, Wheat | item: O=C1NCC(c2cccc(OCc3ccccc3)c2)C1C(=O)Nc1ccccc1F (stereo not shown)
Result block: 0

Query block: Need Plant response rating, Wheat, item O=C1NCC(c2cccc(OCC3CC3)c2)C1C(=O)Nc1ccccc1F (stereo not shown)
Result block: 20

Query block: Query (compound): CN1CC(c2cccc(Oc3ccc(F)cc3)c2)C(C(=O)Nc2ccccc2F)C1=O (single isomer, unassigned) ; field requested: Plant response rating, Wheat
Result block: 20

Query block: Which Plant response rating, Wheat value belongs to O=C1NCC(c2cccc(Oc3ncc(Cl)cn3)c2)C1C(=O)Nc1cccc(F)c1F (stereo not shown) ?
Result block: 0

Query block: // lookup Plant response rating, Wheat for O=C1NCC(c2cccc(OCc3ccco3)c2)C1C(=O)Nc1ccccc1Cl (stereo not shown)
Result block: 0

====

test system: barnyardgrass (Echinochloa crus-galli); assay: Test A preemergence, barnyardgrass; assay type: in vivo; settings: 500 g ai/ha, 0 to 100 scale (0 no effect, 100 complete control)
Measured property: Plant response rating, Barnyardgrass

Compound | Measured property | Reported
O=C1NCC(c2cccc(Cn3ccc(C(F)(F)F)n3)c2)C1C(=O)Nc1ccc(F)cc1F (stereo not shown) | Plant response rating, Barnyardgrass | 0

Query block: Lab note: need Plant response rating, Barnyardgrass for O=C1NCC(c2cccc(OC(F)(F)C(F)OC(F)(F)F)c2)C1C(=O)Nc1ccccc1F (stereo not shown) on barnyardgrass (Echinochloa crus-galli), anyone have it?
Result block: 90

Query block: Test system barnyardgrass (Echinochloa crus-galli); read-out Plant response rating, Barnyardgrass; what value for O=C1NCC(c2cccc(Oc3ncc(F)cn3)c2)C1C(=O)Nc1ccccc1F (single isomer, unassigned) ?
Result block: 90

Query block: API: value(readout=Plant response rating, Barnyardgrass, system=barnyardgrass (Echinochloa crus-galli)) for record CC1(COc2cccc(C3CNC(=O)C3C(=O)Nc3ccccc3Cl)c2)COC1 (stereo not shown)
Result block: 60

====

system: wheat (Triticum aestivum); assay: Test A postemergence, wheat; assay type: in vivo; conditions: 500 g ai/ha, visual injury, 0 to 100 scale (0 no effect, 100 complete control), approximately 10 days
Measured property: Plant response rating, Wheat
API doc: respond with a numeric literal and nothing else, no unit.

Molecule | Reported
O=C1NCC(c2cccc(OCC3CC3)c2)C1C(=O)Nc1ccc(F)cc1F (stereo not drawn) | 20
O=C1NCC(c2cccc(Cn3cccn3)c2)C1C(=O)Nc1cccc(F)c1F (stereo not drawn) | 0

Query block: Returns the measured Plant response rating, Wheat for the input molecule. Input: CN1CC(c2cccc(Oc3ccc(F)cn3)c2)C(C(=O)Nc2cccc(F)c2F)C1=O (single isomer, unassigned)
Result block: 80

Query block: May I ask what Plant response rating, Wheat has been recorded for O=C1NCC(c2cccc(OCc3ccco3)c2)C1C(=O)Nc1cccc(F)c1F (stereo not drawn) ?
Result block: 0

Query block: Can you look up the measured Plant response rating, Wheat of O=C1NCC(c2cccc(COc3ccccc3)c2)C1C(=O)Nc1cccc(F)c1F (stereo not drawn) for me?
Result block: 0

Query block: Query: Plant response rating, Wheat; subject: CN1CC(c2cccc(Sc3ccccc3)c2)C(C(=O)Nc2cccc(F)c2F)C1=O (single isomer, unassigned)
Result block: 20

====

test system: kochia (Kochia scoparia); test: Test A preemergence, kochia; format: in vivo; details: 125 g ai/ha, 0 to 100 scale (0 no effect, 100 complete control)
Below, each of the molecules is paired with its reported Plant response rating, Kochia value.
Answer with a bare number; do not write a unit.

# example entries with known answers
Molecule | Plant response rating, Kochia
O=C1NCC(c2cccc(OCc3ccco3)c2)C1C(=O)Nc1ccccc1C(F)(F)F (stereo not drawn) [Compound 2] | 0
CN1CC(c2cccc(Oc3ccc(F)cn3)c2)C(C(=O)Nc2cccc(F)c2C#N)C1=O (single isomer, unassigned) [Compound 89] | 0
O=C1NCC(c2cccc(OCC3OCCO3)c2)C1C(=O)Nc1ccccc1F (stereo not drawn) [Compound 8] | 0
CN1CC(c2cccc(Sc3ccccc3)c2)C(C(=O)Nc2cccc(F)c2F)C1=O (single isomer, unassigned) [Compound 51] | 20
O=C1NCC(c2cccc(OC(F)(F)C(F)OC(F)(F)F)c2)C1C(=O)Nc1ccccc1F (stereo not drawn) [Compound 40] | 0
CN1CC(c2cccc(Oc3ccc(F)cn3)c2)C(C(=O)Nc2cccc(F)c2F)C1=O (single isomer, unassigned) [Compound 61] | 60
O=C1NCC(c2cccc(COc3ccccc3)c2)C1C(=O)Nc1ccc(F)c(F)c1F (stereo not drawn) [Compound 17] | 0
CN1CC(c2cccc(Oc3ncc(F)cc3F)c2)C(C(=O)Nc2ccccc2F)C1=O (single isomer, unassigned) [Compound 72] | 0

Query block: Look up Plant response rating, Kochia with kochia (Kochia scoparia) for this molecule: O=C1NCC(c2cccc(OCc3ccccc3)c2)C1C(=O)Nc1ccc(F)c(F)c1F (stereo not drawn) [Compound 66]
Result block: 0
